# Test system: MDA-MB-435
# TEST_METHOD_NOTES: NCI tumour cell line growth inhibition, 48 h
Activity calls are given as the source filed them. Cut-off read from the data, not from the text of the source: active = GI50 up to about 1.1 µM and inactive = higher.
For each of the molecules below, state its GI50.

Enquiry: Output GI50 of CC1(C)CC2=C(Sc3ccccc3N2)C(=O)C1C(=O)C(=O)Nc1cc(Cl)ccc1Cl (centres undefined)
Return: > 100 µM (inactive)

Enquiry: Identify measured GI50 associated with COc1ccc(/C=C(\C#N)c2nc3ccccc3c(=O)[nH]2)cc1
Return: > 100 µM (inactive)

Enquiry: Report GI50 for C/C(=C\c1ccccc1)n1c(=O)cc(C)n1C
Return: > 100 µM (inactive)

Enquiry: Give GI50 for CC(C)=CC1C(COC(=O)c2ccccc2Cl)C1(C)C (centres undefined)
Return: 85.1 µM (inactive)

Enquiry: Note down GI50 recorded for Cc1[nH]c(-c2ccccc2)c(O)c1C(=O)OC1CC(C)CCC1C(C)C (centres undefined)
Return: 14.8 µM (inactive)

Enquiry: In one line, give reported GI50 of the entry O=C(O)CSC(NC(=O)C(C(F)(F)F)C(F)(F)F)(C(F)(F)F)C(F)(F)F .
Return: > 100 µM (inactive)

Enquiry: Please give the documented GI50 of CC(=O)O[C@H]1C(=O)[C@@]2(C)[C@H]([C@H](OC(=O)c3ccccc3)[C@]3(O)C[C@H](OC(=O)[C@H](O)[C@@H](NC(=O)c4ccccc4)c4cccc(N(C)C)c4)C(C)=C1C3(C)C)[C@]1(OC(C)=O)CO[C@@H]1C[C@@H]2O
Return: 0.00893 µM (active)

Enquiry: Specify GI50 for CC(C)Cn1cnc2c(SCc3ccccn3)nc(N)nc21 and stop.
Return: > 100 µM (inactive)

Enquiry: Consider the molecule Nc1ccc2c(c1)C(=O)c1c(F)cccc1-2 . State its measured GI50.
Return: > 100 µM (inactive)

---

I'd appreciate it if you could supply GI50 values for the items below.
# Tested on: EKVX
# TEST_METHOD_NOTES: NCI tumour cell line growth inhibition, 48 h
The source made the active and inactive calls. Cut-off read from the data, not from the text of the source: active = GI50 up to about 1.1 µM and inactive = higher.

Enquiry: Output GI50 of Cc1cccc(C)c1NC(=O)C(=O)CC(=O)CO
Return: > 100 µM (inactive)

Enquiry: Please report the measured GI50 for Cn1c([C@H](C#N)c2ncccc2[N+](=O)[O-])nc2ccccc21
Return: 56 µM (inactive)

Enquiry: Output GI50 of Cn1c(=O)c2nc(CCCCc3nc4ccccc4[nH]3)[nH]c2n(C)c1=O
Return: > 100 µM (inactive)

Enquiry: Output measured GI50 for this item: Cc1cc[n+]2c(c1)-c1cc(C)cc[n+]1CC2
Return: > 100 µM (inactive)

Enquiry: Complete the entry with GI50 for Cc1c(Cl)ccc2c1NC(=O)C2(O)CC(=O)c1ccc(Cl)cc1 (centres undefined)
Return: > 55.8 µM (inactive)

Enquiry: Given the compound CC12CCC(=O)C=C1CCC1C2C(O)CC2(C)C(c3csc(N)n3)CCC12.O=S(=O)(O)c1ccc(Br)cc1 (centres undefined) , write its reported GI50.
Return: > 100 µM (inactive)

Enquiry: Supply reported GI50 belonging to this compound: CC(=O)O[C@@]12[C@@H]3O[C@@]4(O)C[C@]5(C)[C@H]6C[C@@](C(C)C)(O[C@H]5c5ccoc5)O[C@H]1[C@]6(C4)O[C@]2(O)C(C)=CC3(C)C
Return: > 100 µM (inactive)

Enquiry: Read the entry COC(=O)C(=O)C1CCCCC(C2=NC3NN=C(N)N3C2=O)C1=O (centres undefined) and write its reported GI50.
Return: > 100 µM (inactive)

Enquiry: Return the recorded GI50 value; entry: CCOC(=O)/C=C1\Nc2ccccc2C12CCc1c([nH]c3ccccc13)C2C(=O)OCC (centres undefined)
Return: 18.8 µM (inactive)
